# tested-on: Neutrophil elastase (Homo sapiens, UniProt P08246)
# Sequence (P08246 whole entry): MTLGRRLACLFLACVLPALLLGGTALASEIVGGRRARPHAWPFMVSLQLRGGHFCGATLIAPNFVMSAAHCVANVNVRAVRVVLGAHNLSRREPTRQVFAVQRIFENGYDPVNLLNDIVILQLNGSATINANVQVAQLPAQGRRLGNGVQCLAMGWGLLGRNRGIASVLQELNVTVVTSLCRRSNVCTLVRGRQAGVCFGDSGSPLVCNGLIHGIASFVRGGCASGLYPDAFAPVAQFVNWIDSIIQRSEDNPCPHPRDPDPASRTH
# assay-name: In vitro inhibitory activity against human leukocyte elastase
value-type: Ki (µM)

CO[C@H]1C(=O)N2C(C(=O)N3CCC[C@@H]3C(=O)O)=C(COC(C)=O)CS(=O)(=O)[C@H]12 ... 3.4
CO[C@H]1C(=O)N2C(C(=O)N(C)CC(=O)O)=C(CSc3ccccn3)CS(=O)(=O)[C@H]12 ... 43

[a] CO[C@H]1C(=O)N2C(C(=O)N(CC(=O)O)Cc3ccccc3)=C(COC(C)=O)CS(=O)(=O)[C@H]12
[b] CO[C@H]1C(=O)N2C(C(=O)N3CCCC3C(=O)O)=C(CSc3nc(=O)c(=O)[nH]n3C)CS(=O)(=O)[C@H]12 (some centres undefined)
q: Record comparison, field Ki: mark the lower of a and b . Reply briefly: the label of your chosen item.
a: b
(b: 0.25 µM, a: 6.1 µM)

Source listed as ChEMBL document CHEMBL1125311.
